Origin of measurements: ChEMBL document CHEMBL4627270

molecules and their reported log10(IC50)
# study.target: Cholinesterase (Equus caballus)
# Sequence (P81908 whole entry): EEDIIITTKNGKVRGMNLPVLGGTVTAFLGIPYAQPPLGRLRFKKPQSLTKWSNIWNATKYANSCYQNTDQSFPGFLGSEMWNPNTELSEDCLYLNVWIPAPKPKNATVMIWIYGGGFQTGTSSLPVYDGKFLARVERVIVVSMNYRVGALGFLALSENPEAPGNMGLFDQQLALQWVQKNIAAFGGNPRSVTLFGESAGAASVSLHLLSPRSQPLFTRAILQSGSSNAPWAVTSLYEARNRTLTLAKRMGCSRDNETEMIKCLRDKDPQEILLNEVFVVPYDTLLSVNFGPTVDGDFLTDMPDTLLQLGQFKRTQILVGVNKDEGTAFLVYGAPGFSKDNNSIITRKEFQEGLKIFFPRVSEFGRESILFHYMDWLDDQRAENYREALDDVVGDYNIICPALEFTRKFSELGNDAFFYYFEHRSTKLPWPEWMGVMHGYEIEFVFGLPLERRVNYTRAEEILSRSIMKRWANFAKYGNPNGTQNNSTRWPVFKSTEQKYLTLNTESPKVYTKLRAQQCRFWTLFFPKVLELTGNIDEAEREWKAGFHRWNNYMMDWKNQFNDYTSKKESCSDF
# test.description: Inhibition of equine serum BChE using S-butyrylthiocholine iodide as substrate preincubated for 60 mins followed by substrate addition and measured for 5 mins by Ellman's method
measure.name: log10(IC50) (log10 of the value in nM)

| molecule | study.target | recorded.number |
| --- | --- | --- |
| CCC(C)(C)NCC(O)c1ccc(OC(=O)N(C)C)cc1 (configuration not stated) | Cholinesterase (Equus caballus) | 3.20 |
| CN(C)C(=O)Oc1ccc(C(O)CN2CCCCC2)cc1 (configuration not stated) | Cholinesterase (Equus caballus) | 2.39 |
| CN(C)C(=O)Oc1ccc(C(O)CNC(C)(C)C)cc1 (configuration not stated) | Cholinesterase (Equus caballus) | 3.73 |
| CN(C)C(=O)Oc1cccc(C(O)CN2CCCC2)c1 (configuration not stated) | Cholinesterase (Equus caballus) | 2.25 |
| CN(C)C(=O)Oc1cccc(C(O)CNc2ccccc2)c1 (configuration not stated) | Cholinesterase (Equus caballus) | 2.45 |
| C#Cc1cccc(NCC(O)c2cccc(OC(=O)N(C)C)c2)c1 (configuration not stated) | Cholinesterase (Equus caballus) | 2.19 |
| CN(C)C(=O)Oc1ccc(C(O)CNC2CCCCC2)cc1 (configuration not stated) | Cholinesterase (Equus caballus) | 1.43 |
